# ASSAY_EXPLANATION: photoluminescence quantum yield (fraction); solvent given as SMILES
# RUN_PARAMETERS: in CC#N
Listing of entries alongside the reported photoluminescence quantum yield.
Just the number, please.

{"SMILES_NOTATION": "C[Si](C)(c1cccc2ccccc12)[Si](C)(C)[Si](C)(C)[Si](C)(C)[Si](C)(C)[Si](C)(C)c1c2ccccc2cc2ccccc12", "MEASURED_NUMBER": 0.017}

// next item, photoluminescence quantum yield requested
Value lookup for photoluminescence quantum yield; key = COc1ccc(-n2nc(C(=O)N3CCCC3)c(N3CCCC3)n2)cc1
0.555

###

# ASSAY_EXPLANATION: photoluminescence quantum yield (fraction); solvent given as SMILES
# RUN_PARAMETERS: in ClCCl
As shown below, each of these molecules has a reported photoluminescence quantum yield value.
Reply: number alone, nothing else.

Returns the measured photoluminescence quantum yield for the input molecule. Input: C(#Cc1cccc(C#Cc2ccc(-n3c4ccccc4c4ccccc43)cc2)c1)c1ccc(-n2c3ccccc3c3ccccc32)cc1
0.8
